Molecular target: JAK2/JAK2 homdimeric complex (Homo sapiens (Human), UniProt O60674)
Sequence (O60674 whole entry): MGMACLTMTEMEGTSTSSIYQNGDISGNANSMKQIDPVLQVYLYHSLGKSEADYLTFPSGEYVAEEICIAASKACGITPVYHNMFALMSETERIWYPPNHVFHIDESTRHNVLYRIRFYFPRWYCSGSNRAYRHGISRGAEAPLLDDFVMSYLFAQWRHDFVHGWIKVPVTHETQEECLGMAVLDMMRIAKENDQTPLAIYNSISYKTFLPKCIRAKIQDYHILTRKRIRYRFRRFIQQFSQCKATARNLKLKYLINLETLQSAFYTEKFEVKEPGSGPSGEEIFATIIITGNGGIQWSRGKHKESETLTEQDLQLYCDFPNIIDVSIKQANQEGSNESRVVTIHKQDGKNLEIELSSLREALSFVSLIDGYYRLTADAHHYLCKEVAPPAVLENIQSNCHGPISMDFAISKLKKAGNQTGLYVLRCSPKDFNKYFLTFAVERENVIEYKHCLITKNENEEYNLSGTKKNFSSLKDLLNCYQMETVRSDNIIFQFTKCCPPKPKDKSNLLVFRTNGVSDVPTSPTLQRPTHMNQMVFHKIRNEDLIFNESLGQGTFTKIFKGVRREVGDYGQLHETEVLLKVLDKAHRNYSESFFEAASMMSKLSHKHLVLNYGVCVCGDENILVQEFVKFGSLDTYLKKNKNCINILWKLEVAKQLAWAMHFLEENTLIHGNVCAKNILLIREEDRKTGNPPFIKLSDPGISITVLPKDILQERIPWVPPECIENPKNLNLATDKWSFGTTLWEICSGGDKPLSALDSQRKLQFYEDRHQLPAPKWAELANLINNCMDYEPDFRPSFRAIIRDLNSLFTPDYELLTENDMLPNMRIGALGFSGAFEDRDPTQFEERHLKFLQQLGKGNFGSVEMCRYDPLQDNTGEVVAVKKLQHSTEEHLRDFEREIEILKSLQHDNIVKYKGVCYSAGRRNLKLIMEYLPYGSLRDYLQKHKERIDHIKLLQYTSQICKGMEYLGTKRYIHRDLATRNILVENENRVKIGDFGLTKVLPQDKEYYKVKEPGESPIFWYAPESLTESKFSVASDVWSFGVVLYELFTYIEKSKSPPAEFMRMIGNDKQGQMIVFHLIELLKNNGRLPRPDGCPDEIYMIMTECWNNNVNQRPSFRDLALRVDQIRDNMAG
Sequence (P32927 17-897 partner): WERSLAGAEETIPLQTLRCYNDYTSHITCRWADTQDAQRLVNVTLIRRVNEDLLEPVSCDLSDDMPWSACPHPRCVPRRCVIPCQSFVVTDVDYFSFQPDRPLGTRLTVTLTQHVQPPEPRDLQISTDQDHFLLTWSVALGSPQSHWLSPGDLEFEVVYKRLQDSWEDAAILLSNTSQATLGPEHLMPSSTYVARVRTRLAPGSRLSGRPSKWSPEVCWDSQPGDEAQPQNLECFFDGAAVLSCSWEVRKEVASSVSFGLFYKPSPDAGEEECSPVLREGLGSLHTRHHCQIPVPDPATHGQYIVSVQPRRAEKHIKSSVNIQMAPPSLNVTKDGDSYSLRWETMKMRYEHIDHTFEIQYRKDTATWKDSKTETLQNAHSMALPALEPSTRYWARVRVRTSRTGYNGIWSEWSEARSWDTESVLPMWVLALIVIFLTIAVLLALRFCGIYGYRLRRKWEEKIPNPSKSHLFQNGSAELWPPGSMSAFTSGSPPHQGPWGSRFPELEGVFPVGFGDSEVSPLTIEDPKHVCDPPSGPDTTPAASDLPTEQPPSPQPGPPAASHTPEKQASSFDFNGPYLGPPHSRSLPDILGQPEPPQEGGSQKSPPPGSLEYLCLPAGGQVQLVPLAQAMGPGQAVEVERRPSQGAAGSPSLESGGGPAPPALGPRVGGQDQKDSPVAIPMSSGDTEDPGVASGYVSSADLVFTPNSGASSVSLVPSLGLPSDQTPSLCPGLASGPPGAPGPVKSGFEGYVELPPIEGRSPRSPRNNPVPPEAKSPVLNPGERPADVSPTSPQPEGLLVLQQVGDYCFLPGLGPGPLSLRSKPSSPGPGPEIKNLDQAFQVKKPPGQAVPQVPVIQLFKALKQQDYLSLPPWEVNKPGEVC
Test: GM-CSF Induced pSTAT5 in Human PBMC
Conditions: GM-CSF 5 ng/mL for 20 minutes, pSTAT5 by MSD, read-out: PBMC_GMCSF_pSTAT5 IC50
pIC50: −log10 of the molar value.
Assay Endpoint: pIC50

Known pIC50 results, listed for orientation:
Consider the molecule `CNc1cc(Nc2cc(F)cnc2OC2CC2)nc2c(C(=O)NC3CC3)cnn12` and give its measured pIC50.
< 4.90

Consider the molecule `CNc1cc(Nc2cccn([C@H]3CC[C@@H](N4CCOCC4)CC3)c2=O)nc2c(C(=O)NC3CCC3)cnn12` and give its measured pIC50.
< 5.60

Consider the molecule `CNc1cc(-c2cn(C(C)C)c3ncccc23)nc2c(C(=O)NC3CCC3)cnn12` and give its measured pIC50.
< 4.30

Consider the molecule `CNc1cc(Nc2cc(Cl)cn(C3CCOCC3)c2=O)nc2c(C(=O)N[C@H]3CC[C@@H]3O)cnn12` and give its measured pIC50.
< 4.90

Consider the molecule `CNc1cc(Nc2cccn([C@@H]3CCCOC3)c2=O)nc2c(C(=O)N[C@@H]3CC[C@H]3OC)cnn12` and give its measured pIC50.
< 4.30

Consider the molecule `CNc1cc(Nc2cccn(-c3cccc(C)n3)c2=O)nc2c(C(=O)N[C@H]3C[C@H]3F)cnn12` and give its measured pIC50.
< 4.90

Consider the molecule `CNc1cc(Nc2cccn(C3CCC4(CC3)OCCO4)c2=O)nc2c(C(=O)N[C@@H]3C[C@@H]3F)cnn12` and give its measured pIC50.
< 4.30

Consider the molecule CNc1cc(Nc2cccn(-c3nc(C)co3)c2=O)nc2c(C(=O)N[C@H]3CC[C@@H]3OC)cnn12 [I-975] and give its measured pIC50.
< 4.30

Consider the molecule `CNc1cc(Nc2cc(Cl)cn(-c3cnn(C4CC4)c3C)c2=O)nc2c(C(=O)N[C@H]3C[C@H]3F)cnn12` and give its measured pIC50.
< 4.30

Consider the molecule `CNc1cc(Nc2cccn(-c3nc(C)co3)c2=O)nc2c(C(=O)NC3CCC3)cnn12` and give its measured pIC50.
< 4.30

More entries:
Consider the molecule `CNc1cc(Nc2cccn(-c3cncc(C)c3)c2=O)nc2c(C(=O)NC3CCC3)cnn12` and give its measured pIC50.
< 4.30

Consider the molecule `CNc1cc(Nc2cc(Cl)cn(-c3cc(C)n(C)n3)c2=O)nc2c(C(=O)NC3CC3)cnn12` and give its measured pIC50.
< 5.60

Consider the molecule `CNc1cc(Nc2cccn(-c3ncc(C)s3)c2=O)nc2c(C(=O)N[C@H]3C[C@H]3F)cnn12` and give its measured pIC50.
< 5.60

----------
Molecular target: human TYK2 (JH2domain-pseudokinase) (Homo sapiens (Human))
Sequence (P29597 556-888): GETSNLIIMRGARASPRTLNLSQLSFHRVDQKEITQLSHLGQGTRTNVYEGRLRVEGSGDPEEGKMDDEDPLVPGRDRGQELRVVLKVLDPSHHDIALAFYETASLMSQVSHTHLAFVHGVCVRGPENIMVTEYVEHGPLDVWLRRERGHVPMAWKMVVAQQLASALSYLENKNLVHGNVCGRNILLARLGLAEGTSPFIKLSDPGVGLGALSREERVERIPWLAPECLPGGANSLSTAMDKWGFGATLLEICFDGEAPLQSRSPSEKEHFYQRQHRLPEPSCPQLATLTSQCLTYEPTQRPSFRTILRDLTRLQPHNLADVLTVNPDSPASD
Assay: TYK2 JH2 Domain Binding Assay (KINOMEscan)
pKd: −log10 of the molar value.
Assay Endpoint: pKd

Known pKd results, listed for orientation:
Consider the molecule CNc1cc(Nc2cccn([C@@H]3C[C@H]3F)c2=O)nc2c(C(=O)NCC(C)(C)CO)cnn12 [I-1399] and give its measured pKd.
8.00 to 9.00

Consider the molecule CNc1cc(Nc2cccn([C@@H]3CCC[C@@H](OC)C3)c2=O)nc2c(C(=O)N[C@H]3CC[C@@H]3OC)cnn12 [I-1099] and give its measured pKd.
> 9.70

Consider the molecule CCO[C@@H]1CC[C@H]1NC(=O)c1cnn2c(NC)cc(Nc3cccn(-c4ccccn4)c3=O)nc12 [I-1232] and give its measured pKd.
9.00 to 9.70

More entries:
Consider the molecule [2H]C([2H])([2H])Oc1ncc(C)cc1Nc1cc(NC)n2ncc(C(=O)NC3CC3)c2n1 [I-258] and give its measured pKd.
> 9.70

Consider the molecule CNc1cc(Nc2cccn3cnnc23)nc2c(C(=O)N[C@@H]3CC[C@H]3OC)cnn12 [I-1342] and give its measured pKd.
> 9.70

Consider the molecule CNc1cc(Nc2cccc([C@@H]3CCCOC3)n2)nc2c(C(=O)N[C@H]3CC[C@@H]3O)cnn12 [I-603] and give its measured pKd.
> 9.70

Consider the molecule [2H]C([2H])([2H])Oc1ncccc1Nc1cc(NC)n2ncc(C(=O)N[C@H]3C[C@H](O)C3)c2n1 [I-321] and give its measured pKd.
> 9.70

Consider the molecule CN(C)C(=O)c1cnc(-n2cccc(Nc3cc(N)n4ncc(C(N)=O)c4n3)c2=O)cn1 [I-38] and give its measured pKd.
9.00 to 9.70

----------
Target: Tyk2/JAK2 (heterodimeric complex) (Homo sapiens (Human))
Sequence (P29597 whole entry, other chains not shown): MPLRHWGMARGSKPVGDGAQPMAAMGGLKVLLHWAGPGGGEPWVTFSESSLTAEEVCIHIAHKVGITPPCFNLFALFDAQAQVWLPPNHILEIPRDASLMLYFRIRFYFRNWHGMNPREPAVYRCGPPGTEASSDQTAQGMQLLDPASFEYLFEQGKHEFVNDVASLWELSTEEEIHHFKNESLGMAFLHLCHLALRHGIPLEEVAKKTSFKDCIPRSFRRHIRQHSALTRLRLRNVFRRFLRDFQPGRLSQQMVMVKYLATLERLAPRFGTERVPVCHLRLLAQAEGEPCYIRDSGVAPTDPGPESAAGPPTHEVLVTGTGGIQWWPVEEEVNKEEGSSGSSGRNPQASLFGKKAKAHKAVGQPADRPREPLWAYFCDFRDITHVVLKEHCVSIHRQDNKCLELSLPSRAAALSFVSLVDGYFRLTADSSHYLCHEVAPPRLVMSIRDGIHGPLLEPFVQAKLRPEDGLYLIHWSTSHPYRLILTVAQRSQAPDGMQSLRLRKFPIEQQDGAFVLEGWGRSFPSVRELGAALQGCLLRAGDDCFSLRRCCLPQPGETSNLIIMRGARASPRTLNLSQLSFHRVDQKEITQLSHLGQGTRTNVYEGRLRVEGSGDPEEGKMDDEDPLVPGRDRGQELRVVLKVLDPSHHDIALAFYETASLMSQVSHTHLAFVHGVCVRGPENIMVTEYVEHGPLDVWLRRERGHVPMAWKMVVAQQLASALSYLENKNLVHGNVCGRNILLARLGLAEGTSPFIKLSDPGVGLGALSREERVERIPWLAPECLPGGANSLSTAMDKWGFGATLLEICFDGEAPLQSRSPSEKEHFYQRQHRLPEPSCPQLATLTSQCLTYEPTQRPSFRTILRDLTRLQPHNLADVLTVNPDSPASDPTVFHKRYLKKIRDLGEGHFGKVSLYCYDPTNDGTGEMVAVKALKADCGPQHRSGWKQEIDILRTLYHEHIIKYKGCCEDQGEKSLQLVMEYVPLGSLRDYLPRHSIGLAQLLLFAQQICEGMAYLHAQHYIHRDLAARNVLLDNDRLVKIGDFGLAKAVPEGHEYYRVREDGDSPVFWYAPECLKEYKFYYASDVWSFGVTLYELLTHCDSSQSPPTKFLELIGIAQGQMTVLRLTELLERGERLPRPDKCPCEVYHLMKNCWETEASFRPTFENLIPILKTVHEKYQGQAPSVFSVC
Assay: IL-12 Induced pSTAT4 in Human PBMC
Conditions: 1.7 ng/mL IL-12
From the text: The IL-12 Induced pSTAT4 assay evaluates the inhibition of IL-12 induced STAT4 phophorylation mediated by Tyk2/JAK2 (heterodimeric complex).
Listed here: items and their measured IC50.

Known IC50 results, listed for orientation:
Consider the molecule CNc1cc(Nc2cccn([C@H]3CC[C@](C)(OC)CC3)c2=O)nc2c(C(=O)N[C@@H]3CC[C@H]3OC)cnn12 [I-959] and give its measured IC50.
< 100 nM

Consider the molecule CNc1cc(Nc2cccn([C@H]3CCC[C@H](O)C3)c2=O)nc2c(C(=O)N[C@@H]3CC[C@H]3OC)cnn12 [I-1395] and give its measured IC50.
< 100 nM

Consider the molecule CNc1cc(-c2cn(C(C)C)c3ncccc23)nc2c(C(=O)N[C@@H]3CC[C@H]3O)cnn12 [I-640] and give its measured IC50.
< 100 nM

Consider the molecule CNc1cc(Nc2cc(Cl)cn(-c3ccc(C4CC4)nn3)c2=O)nc2c(C(=O)NC3CC3)cnn12 [I-333] and give its measured IC50.
< 100 nM

Consider the molecule CNc1cc(Nc2cccn(-c3cnc(C(=O)N(C)C)cn3)c2=O)nc2c(C(=O)NC3CC3)cnn12 [I-127] and give its measured IC50.
< 100 nM

More entries:
Consider the molecule CNc1cc(Nc2cccnc2OC(F)F)nc2c(C(=O)N[C@H]3C[C@H]3F)cnn12 [I-153] and give its measured IC50.
< 100 nM

Consider the molecule CNc1cc(-c2cn([C@H]3CCN(CCF)C3)c3ncccc23)nc2c(C(=O)N[C@@H]3C[C@@H]3F)cnn12 [I-1362] and give its measured IC50.
< 100 nM

Consider the molecule CNc1cc(Nc2cccn(-c3cc(C)n(C)n3)c2=O)nc2c(C(=O)NC3CC3)cnn12 [I-138] and give its measured IC50.
< 100 nM

Consider the molecule CNc1cc(Nc2cccn(-c3ccc(N4CCOCC4)cn3)c2=O)nc2c(C(=O)NC3CCC3)cnn12 [I-163] and give its measured IC50.
< 100 nM

Consider the molecule CNc1cc(Nc2cccn(-c3cc(C)on3)c2=O)nc2c(C(=O)NC3CC3)cnn12 [I-162] and give its measured IC50.
< 100 nM

Consider the molecule CNc1cc(Nc2cccc(C)c2Cl)nc2c(C(N)=O)cnn12 [I-14] and give its measured IC50.
< 100 nM

Consider the molecule [2H]C([2H])([2H])Oc1ncccc1Nc1cc(NC)n2ncc(C(=O)N[C@H]3CC[C@@H]3O)c2n1 [I-411] and give its measured IC50.
< 100 nM

Consider the molecule CNc1cc(Nc2cccnc2OC)nc2c(C(=O)NCC(C)(C)CO)cnn12 [I-346] and give its measured IC50.
< 100 nM

Consider the molecule CNc1cc(Nc2cc(C)cn(-c3cnn(C)c3)c2=O)nc2c(C(=O)NC3CC3)cnn12 [I-233] and give its measured IC50.
< 100 nM

Consider the molecule CNc1cc(Nc2cc(Cl)cn(C3CCCOC3)c2=O)nc2c(C(=O)N[C@H]3C[C@H]3F)cnn12 (stereo partly shown) [I-693] and give its measured IC50.
< 100 nM

Consider the molecule CNc1cc(Nc2cccn([C@H]3CC[C@H](OC)CC3)c2=O)nc2c(C(=O)N[C@H]3CC[C@H]3O)cnn12 [I-539] and give its measured IC50.
< 100 nM

----------
Listed here: items and their measured Kd.
Biological target: human TYK2 (JH2domain-pseudokinase) (Homo sapiens (Human))
Assay: TYK2 JH2 Domain Binding Assay (KINOMEscan)

Can you look up Kd on human TYK2 (JH2domain-pseudokinase) (Homo sapiens (Human)) for CNc1cc(Nc2cccn([C@H]3CCC[C@@H](OC)C3)c2=O)nc2c(C(=O)NCC(C)(C)CO)cnn12 [I-861] ?
< 0.2 nM

Can you look up Kd on human TYK2 (JH2domain-pseudokinase) (Homo sapiens (Human)) for CNc1cc(Nc2cccn(-c3ccccc3F)c2=O)nc2c(C(=O)N[C@H]3CC[C@H]3O)cnn12 [I-1035] ?
< 0.2 nM

Can you look up Kd on human TYK2 (JH2domain-pseudokinase) (Homo sapiens (Human)) for CNc1cc(Nc2cc(Cl)cnc2OC(C)C)nc2c(C(=O)NC3COC3)cnn12 [I-87] ?
> 10 nM

More entries:
Can you look up Kd on human TYK2 (JH2domain-pseudokinase) (Homo sapiens (Human)) for CNc1cc(Nc2cccnc2OC(F)(F)F)nc2c(C(=O)NC3COC3)cnn12 [I-92] ?
> 10 nM

Can you look up Kd on human TYK2 (JH2domain-pseudokinase) (Homo sapiens (Human)) for CNc1cc(Nc2cccn([C@@H]3CCC[C@H](OC)C3)c2=O)nc2c(C(=O)NC3CC3)cnn12 [I-568] ?
< 0.2 nM

Can you look up Kd on human TYK2 (JH2domain-pseudokinase) (Homo sapiens (Human)) for CNc1cc(Nc2ccc3c(n2)OCCO3)nc2c(C(=O)N[C@H]3C[C@H]3F)cnn12 [I-532] ?
0.2 to 1 nM

Can you look up Kd on human TYK2 (JH2domain-pseudokinase) (Homo sapiens (Human)) for CNc1cc(Nc2cccn(-c3cccc(C)n3)c2=O)nc2c(C(=O)N[C@H]3C[C@H]3F)cnn12 [I-131] ?
1 to 10 nM

Can you look up Kd on human TYK2 (JH2domain-pseudokinase) (Homo sapiens (Human)) for CNc1cc(Nc2cccn([C@H]3CC[C@@](C)(OC)CC3)c2=O)nc2c(C(=O)N[C@H]3C[C@H]3F)cnn12 [I-360] ?
< 0.2 nM

Can you look up Kd on human TYK2 (JH2domain-pseudokinase) (Homo sapiens (Human)) for CNc1cc(Nc2cccn(C3CCOCC3)c2=O)nc2c(C(=O)N[C@H]3CC[C@@H]3O)cnn12 [I-528] ?
< 0.2 nM

Can you look up Kd on human TYK2 (JH2domain-pseudokinase) (Homo sapiens (Human)) for CNc1cc(Nc2cccn(-c3nccs3)c2=O)nc2c(C(N)=O)cnn12 [I-15] ?
0.2 to 1 nM

Can you look up Kd on human TYK2 (JH2domain-pseudokinase) (Homo sapiens (Human)) for CNc1cc(Nc2cccn(-c3cncc(F)c3)c2=O)nc2c(C(=O)NC3CC3)cnn12 [I-967] ?
< 0.2 nM

Can you look up Kd on human TYK2 (JH2domain-pseudokinase) (Homo sapiens (Human)) for CNc1cc(Nc2cccn(C3CCN(CCC#N)CC3)c2=O)nc2c(C(=O)N[C@H]3C[C@H]3F)cnn12 [I-628] ?
< 0.2 nM
